Test system: Staphylococcus epidermidis
procedureSummary: Antibacterial activity against Staphylococcus epidermidis after 24 hrs by tube dilution method
Format: functional
Item-by-item account of MIC

Examples with their reported MIC follow.
O=c1c2c3c(sc2nnn1-c1ccc(F)c(Cl)c1)CCCC3	12.5 µg/mL
O=c1c2c3c(sc2nnn1-c1cccc(Cl)c1)CCCC3	12.5 µg/mL

Prompt line: So what's the measured MIC for this one? Cc1cccc(-n2nnc3sc4c(c3c2=O)CCCC4)c1
Response line: 25 µg/mL

Prompt line: So what's the measured MIC for this one? CCn1nnc2sc3c(c2c1=O)CCCC3
Response line: 37.5 µg/mL

Prompt line: So what's the measured MIC for this one? Cc1ccccc1-n1nnc2sc3c(c2c1=O)CCCC3
Response line: 25 µg/mL

Prompt line: So what's the measured MIC for this one? O=c1c2c3c(sc2nnn1-c1ccccc1)CCCC3
Response line: 25 µg/mL

Prompt line: So what's the measured MIC for this one? O=c1c2c3c(sc2nnn1-c1ccc(F)cc1)CCCC3
Response line: 6.75 µg/mL

Prompt line: So what's the measured MIC for this one? CC1(C)S[C@@H]2[C@H](NC(=O)[C@H](N)c3ccccc3)C(=O)N2[C@H]1C(=O)O [AMPICILLIN]
Response line: 1.56 µg/mL

Prompt line: So what's the measured MIC for this one? O=c1c2c3c(sc2nnn1-c1ccccc1Cl)CCCC3
Response line: 12.5 µg/mL

Prompt line: So what's the measured MIC for this one? Cc1ccc(-n2nnc3sc4c(c3c2=O)CCCC4)cc1
Response line: 25 µg/mL

Prompt line: So what's the measured MIC for this one? O=c1[nH]nnc2sc3c(c12)CCCC3
Response line: 37.5 µg/mL

Prompt line: So what's the measured MIC for this one? O=c1c2c3c(sc2nnn1-c1ccc(Cl)cc1)CCCC3
Response line: 12.5 µg/mL

Prompt line: So what's the measured MIC for this one? Cn1nnc2sc3c(c2c1=O)CCCC3
Response line: 37.5 µg/mL

###

Item-by-item account of MIC
System: Aspergillus niger
procedureSummary: Antifungal activity against Aspergillus niger after 48 hrs by tube dilution method
Type: functional
Write it as a number; the unit mg/L goes unstated.

Examples with their reported MIC follow.
Clc1ccc(COC(Cn2ccnc2)c2ccc(Cl)cc2Cl)c(Cl)c1.O=[N+]([O-])O (stereo not drawn) [MICONAZOLE NITRATE]	10
O=c1[nH]nnc2sc3c(c12)CCCC3	37.5
Cc1cccc(-n2nnc3sc4c(c3c2=O)CCCC4)c1	25
Cc1ccc(-n2nnc3sc4c(c3c2=O)CCCC4)cc1	25
CCn1nnc2sc3c(c2c1=O)CCCC3	37.5

Prompt line: So what's the measured MIC for this one? O=c1c2c3c(sc2nnn1-c1ccc(F)c(Cl)c1)CCCC3
Response line: 25

###

Item-by-item account of zone of inhibition at 50 µg/mL
Test system: Staphylococcus epidermidis
procedureSummary: Antibacterial activity against Staphylococcus epidermidis at 50 ug/ml after 24 hrs by agar cup diffusion method
Assay type: functional
conditionSet: read-out: IZ
Write it as a number; the unit mm goes unstated.

Cc1ccc(-n2nnc3sc4c(c3c2=O)CCCC4)cc1	28

Prompt line: So what's the measured zone of inhibition at 50 µg/mL for this one? O=c1c2c3c(sc2nnn1-c1ccc(F)cc1)CCCC3
Response line: 32

Prompt line: So what's the measured zone of inhibition at 50 µg/mL for this one? Cc1cccc(-n2nnc3sc4c(c3c2=O)CCCC4)c1
Response line: 20

Prompt line: So what's the measured zone of inhibition at 50 µg/mL for this one? O=c1c2c3c(sc2nnn1-c1ccccc1Cl)CCCC3
Response line: 30

Prompt line: So what's the measured zone of inhibition at 50 µg/mL for this one? Cc1ccccc1-n1nnc2sc3c(c2c1=O)CCCC3
Response line: 18

Prompt line: So what's the measured zone of inhibition at 50 µg/mL for this one? CC1(C)S[C@@H]2[C@H](NC(=O)[C@H](N)c3ccccc3)C(=O)N2[C@H]1C(=O)O [AMPICILLIN]
Response line: 36

###

Tested on: Staphylococcus aureus
procedureSummary: Antibacterial activity against Staphylococcus aureus after 24 hrs by tube dilution method
Type: functional
Checkbox rule: MIC lower than 10 µg/mL = YES; MIC not lower than 10 µg/mL = NO.

As a guide, the following entries are already answered.
O=c1c2c3c(sc2nnn1-c1ccccc1Cl)CCCC3	NO
Cc1cccc(-n2nnc3sc4c(c3c2=O)CCCC4)c1	NO
O=c1c2c3c(sc2nnn1-c1ccc(F)c(Cl)c1)CCCC3	NO
CC1(C)S[C@@H]2[C@H](NC(=O)[C@H](N)c3ccccc3)C(=O)N2[C@H]1C(=O)O [AMPICILLIN]	YES
O=c1c2c3c(sc2nnn1-c1ccccc1)CCCC3	NO
Cn1nnc2sc3c(c2c1=O)CCCC3	NO
O=c1c2c3c(sc2nnn1-c1ccc(F)cc1)CCCC3	YES
O=c1c2c3c(sc2nnn1-c1ccc(Cl)cc1)CCCC3	NO

Prompt line: Strictly below 10 µg/mL: is that where MIC of CCn1nnc2sc3c(c2c1=O)CCCC3 sits?
Response line: NO

Prompt line: Strictly below 10 µg/mL: is that where MIC of O=c1c2c3c(sc2nnn1-c1cccc(Cl)c1)CCCC3 sits?
Response line: NO

Prompt line: Strictly below 10 µg/mL: is that where MIC of O=c1[nH]nnc2sc3c(c12)CCCC3 sits?
Response line: NO

Prompt line: Strictly below 10 µg/mL: is that where MIC of Cc1ccc(-n2nnc3sc4c(c3c2=O)CCCC4)cc1 sits?
Response line: NO

Prompt line: Strictly below 10 µg/mL: is that where MIC of Cc1ccccc1-n1nnc2sc3c(c2c1=O)CCCC3 sits?
Response line: NO

###

System: Candida albicans
procedureSummary: Antifungal activity against Candida albicans at 50 ug/ml after 48 hrs by agar cup diffusion method
Assay type: functional
conditionSet: read-out: IZ
experimentalEndpoint: zone of inhibition at 50 µg/mL (mm)
Write it as a number; the unit mm goes unstated.

Examples with their reported zone of inhibition at 50 µg/mL follow.
O=c1c2c3c(sc2nnn1-c1cccc(Cl)c1)CCCC3	8
O=c1c2c3c(sc2nnn1-c1ccccc1)CCCC3	4
O=c1[nH]nnc2sc3c(c12)CCCC3	3
O=c1c2c3c(sc2nnn1-c1ccc(F)cc1)CCCC3	8
Clc1ccc(COC(Cn2ccnc2)c2ccc(Cl)cc2Cl)c(Cl)c1.O=[N+]([O-])O (stereo not drawn) [MICONAZOLE NITRATE]	12

Prompt line: So what's the measured zone of inhibition at 50 µg/mL for this one? Cc1cccc(-n2nnc3sc4c(c3c2=O)CCCC4)c1
Response line: 4

Prompt line: So what's the measured zone of inhibition at 50 µg/mL for this one? Cc1ccccc1-n1nnc2sc3c(c2c1=O)CCCC3
Response line: 4

Prompt line: So what's the measured zone of inhibition at 50 µg/mL for this one? Cc1ccc(-n2nnc3sc4c(c3c2=O)CCCC4)cc1
Response line: 5

Prompt line: So what's the measured zone of inhibition at 50 µg/mL for this one? CCn1nnc2sc3c(c2c1=O)CCCC3
Response line: 5

Prompt line: So what's the measured zone of inhibition at 50 µg/mL for this one? O=c1c2c3c(sc2nnn1-c1ccc(F)c(Cl)c1)CCCC3
Response line: 7

Prompt line: So what's the measured zone of inhibition at 50 µg/mL for this one? O=c1c2c3c(sc2nnn1-c1ccccc1Cl)CCCC3
Response line: 8

Prompt line: So what's the measured zone of inhibition at 50 µg/mL for this one? O=c1c2c3c(sc2nnn1-c1ccc(Cl)cc1)CCCC3
Response line: 10

Prompt line: So what's the measured zone of inhibition at 50 µg/mL for this one? Cn1nnc2sc3c(c2c1=O)CCCC3
Response line: 4

###

Item-by-item account of MIC
Test system: Candida albicans
procedureSummary: Antifungal activity against Candida albicans after 48 hrs by tube dilution method
Type: functional
Write it as a number; the unit µg/mL goes unstated.

O=c1c2c3c(sc2nnn1-c1cccc(Cl)c1)CCCC3	25
O=c1c2c3c(sc2nnn1-c1ccc(Cl)cc1)CCCC3	25
O=c1c2c3c(sc2nnn1-c1ccc(F)c(Cl)c1)CCCC3	37.5
CCn1nnc2sc3c(c2c1=O)CCCC3	50
O=c1[nH]nnc2sc3c(c12)CCCC3	50

Prompt line: So what's the measured MIC for this one? Cn1nnc2sc3c(c2c1=O)CCCC3
Response line: 50

Prompt line: So what's the measured MIC for this one? Cc1ccc(-n2nnc3sc4c(c3c2=O)CCCC4)cc1
Response line: 37.5

Prompt line: So what's the measured MIC for this one? Cc1ccccc1-n1nnc2sc3c(c2c1=O)CCCC3
Response line: 37.5

Prompt line: So what's the measured MIC for this one? O=c1c2c3c(sc2nnn1-c1ccc(F)cc1)CCCC3
Response line: 37.5

Prompt line: So what's the measured MIC for this one? O=c1c2c3c(sc2nnn1-c1ccccc1Cl)CCCC3
Response line: 25

Prompt line: So what's the measured MIC for this one? O=c1c2c3c(sc2nnn1-c1ccccc1)CCCC3
Response line: 50

Prompt line: So what's the measured MIC for this one? Cc1cccc(-n2nnc3sc4c(c3c2=O)CCCC4)c1
Response line: 37.5

Prompt line: So what's the measured MIC for this one? Clc1ccc(COC(Cn2ccnc2)c2ccc(Cl)cc2Cl)c(Cl)c1.O=[N+]([O-])O (stereo not drawn) [MICONAZOLE NITRATE]
Response line: 12.5
